Assay: Biodistribution of 67Ga complexes in mice
Assay type: in vivo, balb/c mice
Details: 30 min
Overview of reported biodistribution spleen across a group of molecules:
State just the number; it will be interpreted in % ID.

Take a look at these entries with their results.
CC(C)(C)c1ccc(O)c(NC(=O)CN(CCN(CC(=O)O)CC(=O)Nc2cc(C(C)(C)C)ccc2O)CC(=O)O)c1 0.00
O=C(O)CN(CCN(CC(=O)O)CC(=O)Nc1ccc(Cl)cc1O)CC(=O)Nc1ccc(Cl)cc1O 0.02
Cc1cc(C)c(O)c(NC(=O)CN(CCN(CC(=O)O)CC(=O)Nc2cc(C)cc(C)c2O)CC(=O)O)c1 0.01

# next molecule below
biodistribution spleen for O=C(O)CN(CCN(CC(=O)O)CC(=O)Nc1ccccc1O)CC(=O)Nc1ccccc1O is 0.01
